# Protocol Details: in vivo
# Setup Conditions: male, Sprague-Dawley, rat, po, 1000 mg/kg, Plasma concentration
Experimental Readout: concentration at 0.25 h (ng/mL)
Give a bare numeral; the unit ng/mL is implied.

Consider the molecule Cc1c(-c2ccc(O)cc2)n(Cc2ccc(OCCN3CCCCC3)cc2)c2ccc(O)cc12 [Pipendoxifene] and give its measured concentration at 0.25 h.
5.05

====

# Protocol Details: Pharmacokinetics (plasma and lung tissue) after single and 5-day repeat oral dosing in female 129S1 mice
# Setup Conditions: female, 129S1, mouse, in vivo, po, 50 mg/kg
Experimental Readout: half-life at 5 day (h)
// note: answer is a bare numeric in h

Look at this compound and give its reported half-life at 5 day. Cc1c(-c2ccc(O)cc2)n(Cc2ccc(OCCN3CCCCC3)cc2)c2ccc(O)cc12 [Pipendoxifene]
2.58
